TARGET OR TEST SYSTEM: Rat AC (r-AC), Acid Ceramidase (Rattus norvegicus, UniProt Q6P7S1)
Construct: V5 (C); His (C); made in house; host or cells: HEK293 cells transfected with pEF6-rAC-V5/His, selected with G418; soluble fraction after freeze/thaw
Sequence (Q6P7S1 21-394): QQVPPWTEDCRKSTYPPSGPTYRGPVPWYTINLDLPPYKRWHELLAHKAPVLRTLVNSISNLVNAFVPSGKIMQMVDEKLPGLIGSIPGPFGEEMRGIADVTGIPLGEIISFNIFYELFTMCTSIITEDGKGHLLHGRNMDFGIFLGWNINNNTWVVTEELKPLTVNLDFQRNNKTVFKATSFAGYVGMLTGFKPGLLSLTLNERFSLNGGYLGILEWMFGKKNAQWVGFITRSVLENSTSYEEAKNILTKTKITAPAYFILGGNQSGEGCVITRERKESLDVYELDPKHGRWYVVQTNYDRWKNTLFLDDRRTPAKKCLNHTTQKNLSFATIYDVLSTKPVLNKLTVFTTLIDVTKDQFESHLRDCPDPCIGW
EXPERIMENT DESCRIPTION: Rat AC (r-AC) assay, UPLC/MS
Assay type: biochemical
ASSAY SETUP: read-out: r-AC UPLC/MS assay % inhib.
inhibition at 1 µM listing for selected molecules.
Reply numerically in %, unit not repeated.

> print(dat)
                                   molecule        test.readout  display.unit  measured
1  O=C(CCCCCCC1CCCCC1)N[C@H]1CNC1=O [Example 30]  inhibition at 1 µM             %        45
2  O=C(CCCCCCc1ccccc1)N[C@H]1CNC1=O [Example 7]  inhibition at 1 µM             %        25
3  CCCCCCCCCC(=O)N[C@H]1CNC1=O [Example 23, N-[(3S)-2-Oxoazetidin-3-yl]-decanamide]  inhibition at 1 µM             %        70

Attention now turns to another entry.
Reported inhibition at 1 µM, molecule CCCCCCCCC(=O)N[C@H]1CNC1=O [Example 3, N-[(3S)-2-Oxoazetidin-3-yl]-nonanamide] : ____
25

Where these numbers come from: patent US9908848B2
